# Tested on: SGC7901
# Assay Protocol: cells
# Parameters: species or system human cancer cell lines; CCK8 cell viability assay, absorbance at 450 nm
# Test Conditions: Homo sapiens, SGC-7901, 72 h
Reported Metric: pIC50
Answers are plain numbers, as −log10 of the molar value.

Here is how some compounds turned out for pIC50.
Compound | pIC50
CCC(C)C1OC(=O)C(C)(C)C(O)C(Cc2ccccc2)OC(=O)C(C(C)C)OC(=O)C(NC(=O)c2cccc(O)c2)C(C)OC1=O (stereo not shown) | 5.02
CC(C)C1OC(=O)C(NC(=O)c2cccc(O)c2)C(C)OC(=O)C(C(C)C)OC(=O)C(C)(C)C(O)C(Cc2ccccc2)OC1=O (stereo not shown) | 5.00

Dear reader, for each entry below, please note its pIC50.
1. CC(C)C1OC(=O)C(NC(=O)c2cccc(O)c2)C(C)OC(=O)C(C(C)C)OC(=O)C(C)(C)C(=O)C(Cc2ccccc2)OC1=O (stereo not shown)
2. CCC(C)C1OC(=O)C(C)(C)C(=O)C(Cc2ccccc2)OC(=O)C(C(C)C)OC(=O)C(NC(=O)c2cccc(O)c2)C(C)OC1=O (stereo not shown) [compound 1, unantimycin B]

1. 5.18
2. 4.92

Where these numbers come from: paper PMC7170507
